Please respond with reported growth for every item in the list.
tested on: KM12 colon; test: NCI-60 one-dose screen, 48 h (100 = growth as untreated, 0 = no growth, -100 = all killed); conditions: 10 µM unless noted
Compounds without any hit were thinned out: in the full panel of roughly 83,000, 20% have a hit.
A number alone suffices; assume %.

Q: # query: growth of entry O=[N+]([O-])c1ccc(-c2cn(-c3ccccc3)c(-c3ccccc3)n2)cc1
Ans: 94.4

Q: Fill in the blank: the reported growth of COc1ccc2c(c1)cn1c3ccc(OC)cc3[nH]c(=O)c21 is ____.
Ans: -61.7

Q: Form field: reported growth of Cc1ccc(-c2cc3nc(-c4ccccc4)nc(C(Cl)Cl)n3n2)cc1
Ans: -83.6

Q: Give the measured growth of O=S(=O)(CC(O)(c1ccccc1)c1ccccc1)CC(O)(c1ccccc1)c1ccccc1 .
Ans: 87.6

Q: Find the recorded growth belonging to O=C(NNC(=S)Nc1ccccc1)c1cc2ccc1CCc1ccc(cc1)CC2 and report it.
Ans: 77.1

Q: Can you look up the measured growth of Cc1ccc(S(=O)(=O)n2cc(C(=O)C(=O)N3CCOCC3)c3ccccc32)cc1 for me?
Ans: 98.7

Q: # query: growth of entry Cc1ccc(-c2nc(C#N)c(S(=O)(=O)n3nc(-c4ccccc4)cc3N)o2)cc1
Ans: 107

Q: // lookup growth for N[C@H]1CN(C(=O)c2cc3cc(Br)c(F)c(F)c3[nH]2)C[C@@H]1O
Ans: 104

Q: Recorded growth for Nc1cccc(-c2nc3sccn3c2-c2ccnc(NCCNS(=O)(=O)c3ccc(C(F)(F)F)cc3)n2)c1 , please?
Ans: 61.5

Q: Given the entry c1ccc(-c2cn(-c3ccccc3)c(-c3ccccc3)n2)cc1 , report its measured growth.
Ans: 11.8

Q: Looking for the measured growth of COc1cc(Nc2nc(N[C@H]3CCCC[C@@H]3N)nc3cc[nH]c(=O)c23)cc(OC)c1 , can you help?
Ans: 7.39

Q: Which growth is listed for NC1N=C(SCC(=O)N2CCN(c3cc4c(cc3F)c(=O)c(C(=O)O)cn4C3CC3)CC2)NC(=O)/C1=C/c1ccc(Cl)cc1 (configuration not stated) ?
Ans: 107

Q: Tell me the measured growth of CCCCCCCC/C=C/CCCCCCCC1=NC(C)(C)CN1C(C)(C)CO , please.
Ans: -91.5

Q: Please give the measured growth for this compound: CCN(CC)c1ccc(N=O)cc1
Ans: 40.3

Q: Please give the measured growth for this compound: CC(C)(C)n1cc(-c2ccnc(NCCCNS(=O)(=O)c3ccc(C(F)(F)F)cc3)c2)c(-c2cccc(O)c2)n1
Ans: -14.2

Q: Request the reported growth associated with O=C1c2ccccc2-c2ccccc2C1(Cl)Cl
Ans: -90.6

Q: Quick one: growth for Cn1c(=O)cc(NC(=O)CN2CCN(c3cc4c(cc3F)c(=O)c(C(=O)O)cn4C3CC3)CC2)[nH]c1=O ?
Ans: 101

---

test system: SW-620 colon; test: NCI-60 one-dose screen, 48 h (100 = growth as untreated, 0 = no growth, -100 = all killed); settings: 10 µM unless noted
About 83,000 compounds went through this panel and 20% of them were active in at least one assay; those are over-represented in the sample as a whole.
Output true for records whose growth is lower than 60%, false for records at or above 60%.

Q: Quick check: growth of COc1ccc(Nc2[nH]n3c(=O)cc(-c4ccccc4)nc3c2C(=O)Nc2ccc(C)cc2)c(OC)c1 under 60%?
Ans: false

Q: Find out if reported growth for Cc1cc(N/N=C/c2nc(-c3ccc(Br)cc3)oc2C)c2cc(Br)ccc2n1 is less than 60%
Ans: true

Q: Strictly below 60%: is that where growth of Nc1nnc(-c2ccc3ccccc3c2O)o1 sits?
Ans: false

Q: Here's an entry: O=C1Nc2ccc3c(c2/C1=C\c1cc2c(cc1Br)OCO2)OCO3 . Is its growth below 60%?
Ans: true

Q: Hello, is growth of the following compound strictly smaller than 60%? O=[N+]([O-])c1ccc(Sc2ncccn2)c([N+](=O)[O-])c1
Ans: true

Q: Quick check: growth of COc1ccc(OC)c(/C=C2\Oc3cc(OCCCN4CCCC4)ccc3C2=O)c1 under 60%?
Ans: true

Q: Field: below-cutoff. Rule: recorded growth strictly less than 60%. Subject: CCCCNC(=O)Oc1ccc(/C(=C(\C)c2ccccc2)c2ccc(OCCN(CC)CC)cc2)cc1
Ans: false

Q: For this compound, is growth lower than 60%? Nc1nc(-c2ccccc2)c(CCCOc2ccc(NC(=O)CBr)cc2)c(=O)[nH]1
Ans: false

Q: Item CN(C)c1ncnc2c1ccn2C1OC(CO)C(O)C1O (stereo not given) : growth beneath 60%, strictly?
Ans: true

Q: Is 60% strictly greater than the compound's reported growth? compound: CCCCCCCCCCCCCCCCCCNC(=O)[C@H]1CSC(c2cccs2)N1 (stereo not given in full)
Ans: true

Q: Is growth of Cc1ccc2ccccc2c1C[n+]1ccccc1 strictly below 60%?
Ans: false

Q: Record N=C(N)c1ccc(-c2cc(Cl)cc(Cl)c2)cn1 : is its growth strictly below 60%?
Ans: false

Q: A record lists Cc1ccc(CSC(=N)N)cc1C . Is its growth below 60%?
Ans: false

Q: Regarding O=C1/C(=C/c2ccccc2)Oc2ccc(O)c(I)c21 , kindly confirm whether its growth is beneath 60%.
Ans: false

Q: In the record for COC(=O)c1cccc2c1N(C)c1c(cccc1C(=O)OC)CC2 , is growth less than 60%?
Ans: false

---

tested on: MCF7 breast; assay: NCI-60 one-dose screen, 48 h (100 = growth as untreated, 0 = no growth, -100 = all killed); conditions: 10 µM unless noted
About 83,000 compounds went through this panel and 20% of them were active in at least one assay; those are over-represented in the sample as a whole.
Value Kind: growth (%)
# output: bare number, implied unit %

Q: May I ask what growth has been recorded for Nc1nc(Nc2cc(Cl)cc(Cl)c2)nn1S(=O)(=O)c1ccc2ccccc2c1 ?
Ans: 32.8

Q: May I ask what growth has been recorded for COc1cc(-c2nn(-c3cccc(NC(=O)c4ccc(N5CCOCC5)c(C(F)(F)F)c4)c3)cc2-c2ccncc2)ccc1Cl ?
Ans: 8.85

Q: Find the recorded growth belonging to CC1CN(c2oc(-c3ccccc3)nc2C#N)CC(C)O1 (stereo unspecified) and report it.
Ans: 77.1

Q: Entry COc1ccc(C(=O)N2NC(=O)/C(=C/c3ccccc3F)N=C2c2ccccc2)cc1 : reported growth = ?
Ans: 91.2

Q: For CCOC(=O)NNC(=S)Nc1ccccc1 , what is its reported growth?
Ans: 100

Q: Form field: reported growth of C/C(=C\c1ccc(OCC(=O)O)c(Cl)c1Cl)[N+](=O)[O-]
Ans: 103

Q: Which value of growth has been reported for CCCCCc1cc[n+](CC(=O)c2ccc([N+](=O)[O-])cc2)cc1 in the records?
Ans: 43

Q: Give the measured growth of COc1ccc(Nc2nn3c(-c4ccccc4)cc(-c4ccccc4)nc3c2C(N)=O)c(OC)c1 .
Ans: 46.7

Q: Item COc1cc2c(=O)n(C3CCCCCC3)c3c4cc[nH]c4ncc3c2cc1OC has what recorded growth?
Ans: 49.9

Q: Would you mind telling me what growth value was observed for CN(C)c1nc2c(N)ncnc2n1C1OC(CO)C(O)C1O (stereo unspecified) ?
Ans: 99.4

Q: For the molecule shown here, C=C(C)[C@@H]1C[C@H](O)Cc2cc(F)ccc2N1 , give the reported growth.
Ans: 103

---

test system: UO-31 renal; test: NCI-60 one-dose screen, 48 h (100 = growth as untreated, 0 = no growth, -100 = all killed); settings: 10 µM unless noted
About 83,000 compounds went through this panel and 20% of them were active in at least one assay; those are over-represented in the sample as a whole.
Recorded growth determines the group label, using bottom end: < 40%; midrange: ≥ 40% and < 70%; top end: ≥ 70%

Q: Please report the category associated with CCCCCCCCCCCCNC(=O)[C@H]1CSC(c2ccsc2)N1 (stereo partly drawn) , nothing else.
Ans: bottom end

Q: Lab note: which band did O=C(O)Cc1cccc(=O)c(O)c1C(=O)O land in?
Ans: top end

Q: Entry O=C(Nc1ccc(Cl)c(Cl)c1)NS(=O)(=O)c1cnccc1Oc1ccc(F)cc1 belongs to which category?
Ans: midrange

Q: Which category does the recorded growth put Fc1ccc(-c2nc(-c3nc4ncccc4[nH]3)cc3c2[nH]c2ccccc23)cc1F in?
Ans: midrange

Q: Which category fits this record: COc1cc(/C(C#N)=C/c2ccc3c(c2OC)OCO3)cc2c1OCO2
Ans: midrange

Q: Category of Cc1cc(N/N=C/c2nc(-c3ccc(Br)cc3)oc2C)c2cc(Br)ccc2n1 , please.
Ans: midrange

Q: Which class is correct for the following molecule? COc1ccc(-c2c(N)n[nH]c2-c2cc(OC)c3c(c2)OCCO3)cc1
Ans: top end

Q: Lab log: Cc1cccc(/C=N/Nc2cc(C)c3cccc(C)c3n2)n1 — assign growth category
Ans: top end

Q: Which of the defined bands does the recorded growth of CCOC(=O)c1cc(C(=O)c2cc(OC)c(OC)c(OC)c2)n2c1ccc1ccccc12 sit within?
Ans: bottom end

Q: Category of O=C(Nc1ccncc1)C(=O)c1cn(S(=O)(=O)c2ccc(Cl)cc2)c2ccccc12 , please.
Ans: midrange

Q: Could you place COc1ccc(Nc2ncccc2C(=O)NCc2cn(Cc3cccc(Oc4ccccc4)c3)nn2)c(OC)c1 in its proper category? Many thanks.
Ans: midrange

Q: Category of Cc1c(C(=O)/C=C/c2csc3ccccc23)[n+](=O)c2ccccc2n1[O-] :
Ans: bottom end

Q: Pick a category. Item: CCOc1cc2c(Cl)ncnc2c(OCC)c1OCC
Ans: bottom end

Q: Which category does the recorded growth put CCc1ccc(-c2ccc(=O)n(-c3ccc(S(N)(=O)=O)cc3)n2)cc1 in?
Ans: bottom end

Q: Hello team, could you let me know which band the following molecule falls into: O=C(c1ccccc1)C1OC1c1ccc([N+](=O)[O-])cc1 (stereo not drawn)
Ans: top end

Q: Kindly identify the class of CC(C)(C)NCCC(O)c1cc2c(Cl)cc(Cl)cc2c2cc(C(F)(F)F)ccc12 (stereo not drawn) .
Ans: bottom end

Q: Dear colleague, I would appreciate it if you could identify the bin for O=C1NN(C(=O)c2ccc(Cl)cc2)C(c2ccccc2)=N/C1=C\c1cn(-c2ccccc2)nc1-c1ccccc1 and reply at your convenience.
Ans: top end

Q: Band assignment needed for CC(C)C1=CC2=C(C=O)C[C@@H]3[C@](C)(CCC[C@@]3(C)C(=O)OCC#CCN3CCCC3)[C@H]2CC1 please.
Ans: midrange

Q: Exam item: assign COC(=O)C1CCCN1C(=O)[C@@H]1CCCN1C(=O)[C@H](Cc1c[nH]c2ccccc12)NC(=S)Nc1cc(C(F)(F)F)cc(C(F)(F)F)c1 (stereo partly drawn) to the correct category.
Ans: midrange

Q: Please let me know in which category the item Cc1ccc(C(=O)C2=Cc3cc4ccccc4n3Cc3cnnn32)cc1 belongs.
Ans: top end

Q: # bin lookup: classify COc1ccc(Cn2cc3c(c2-c2cc(OC)c(OC)c(OC)c2)CCc2cnoc2-3)cc1 by its growth
Ans: bottom end

Q: Which of the defined bands does the recorded growth of O=c1[nH]c(NCc2ccccc2)nc2nc(Nc3ccc(NC(=S)Nc4ccccc4)cc3)nc(-c3ccc(O)cc3O)c12 sit within?
Ans: top end

Q: Consider O=C(Nc1ccncc1)C(=O)c1cn(S(=O)(=O)c2ccccc2F)c2ccccc12 . To which growth class does it belong?
Ans: midrange

Q: Which growth category applies to C=C1C(=O)O[C@H]2[C@H]1CC/C(COC(=O)NCc1ccccc1OC)=C\CC[C@@]1(C)O[C@@H]21 here?
Ans: bottom end

Q: Band of CN(C)c1cccc2c(S(=O)(=O)/N=C(\N)Nc3nc4ccccc4s3)cccc12 ?
Ans: midrange
